Ref: patent US20130005646A1

- SYSTEM: T1, human amylin 3(a) receptor (human calcitonin receptor + RAMP-3) (human, UniProt P30988 25-474; O60896 24-148)
- T1 sequence (looked up) 1: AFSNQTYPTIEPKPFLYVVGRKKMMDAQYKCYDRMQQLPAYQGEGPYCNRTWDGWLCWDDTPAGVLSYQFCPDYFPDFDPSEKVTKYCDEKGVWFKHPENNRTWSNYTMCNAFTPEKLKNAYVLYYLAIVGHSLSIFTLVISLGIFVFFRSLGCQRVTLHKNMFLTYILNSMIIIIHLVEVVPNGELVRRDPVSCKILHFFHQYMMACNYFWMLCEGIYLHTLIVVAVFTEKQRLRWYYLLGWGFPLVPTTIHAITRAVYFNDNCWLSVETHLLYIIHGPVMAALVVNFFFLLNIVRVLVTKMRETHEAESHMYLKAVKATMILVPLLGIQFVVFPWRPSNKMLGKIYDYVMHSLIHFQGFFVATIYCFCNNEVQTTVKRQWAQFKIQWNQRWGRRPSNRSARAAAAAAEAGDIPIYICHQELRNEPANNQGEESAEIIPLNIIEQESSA
- T1 sequence (looked up) 2: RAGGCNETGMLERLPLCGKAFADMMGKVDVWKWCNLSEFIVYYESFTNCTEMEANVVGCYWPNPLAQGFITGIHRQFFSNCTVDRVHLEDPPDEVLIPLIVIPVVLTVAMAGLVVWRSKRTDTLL
- PROTOCOL TEXT: cell-based or functional assay
Starred links: 1 amine or outer side, 2 acyl side, 3 side chain; linkers in the order of their positions; H or OH if unused. Positions of bridges follow the written chain, without caps; N, C: chain ends. Non-standard residues stand in square brackets, D forms with d. Groups on a side chain read outwards from the residue. No end group written: not given here. *: point of attachment. C20 diacid = O=C(O)CCCCCCCCCCCCCCCCCCC(=O)*; 19‑carboxyheptadecanoyl = not defined here; C18 diacid = O=C(O)CCCCCCCCCCCCCCCCC(=O)*; γGlu = O=C(O)[C@H](CCC(=O)[*:2])N[*:1]; AEEA = NCCOCCOCC(=O)O
PARAMETER: Amylin receptor human EC50 (nM)

- BINDER: "KCNTATCATQRLAEFLVRSSK([AEEA-AEEA-γGlu-19‑carboxyheptadecanoyl])NFGPILSRTNVGSRTY-NH2 (disulfide 2-7)"
  PARAMETER: "Amylin receptor human EC50"
  OBSERVED RESULT: 0.344
- BINDER: "{C20 diacid-γGlu}-EKCNTATCATQRLAEFLHHSSQNFGPILPPTNVGSHTY-NH2 (disulfide 3-8; not fully specified; printed as N-alpha-[(S)-4-Carboxy-4-(19-carboxynonadecanoylamino)butyryl]-Glu-[Glu14,His17,Gln21,His35]-pramlintide)"
  PARAMETER: "Amylin receptor human EC50"
  OBSERVED RESULT: 0.391
- BINDER: "{19‑carboxyheptadecanoyl-γGlu-AEEA-AEEA}-[dR][dR]KCNTATCATQRLAEFLHRSSANFGPILPPTNVGSSTY-NH2 (disulfide 4-9; reading uncertain; also: printed as N-alpha-[2-(2-{2-[2-(2-{2-[(S)-4-Carboxy-4-(19-carboxyheptadecanoylamino)butyrylamino]ethoxy}ethoxy)acetylamino]ethoxy}ethoxy)acetyl]-D-Arg-D-Arg-[Glu14,His17,Arg18,Ala21,Ser35]-pramlintide)"
  PARAMETER: "Amylin receptor human EC50"
  OBSERVED RESULT: 0.149
- BINDER: "KCNTATCATQRLAEFLVHSSK([AEEA-AEEA-γGlu-19‑carboxyheptadecanoyl])NFGPILSRTNVGSHTY-NH2 (disulfide 2-7)"
  PARAMETER: "Amylin receptor human EC50"
  OBSERVED RESULT: 0.54
- BINDER: "KCNTATCATQRLANFLHHSSK([AEEA-AEEA-γGlu-19‑carboxyheptadecanoyl])NFGPILSPTNVGSHTY-NH2 (disulfide 2-7)"
  PARAMETER: "Amylin receptor human EC50"
  OBSERVED RESULT: 0.482
- BINDER: "{C20 diacid-γGlu}-EKCNTATCATQRLAEFLHHSSNNFGPILPPTNVGSHTY-NH2 (disulfide 3-8; not fully specified; printed as N-alpha-[(S)-4-Carboxy-4-(19-carboxynonadecanoylamino)butyryl]-Glu-[Glu14,His17,His35]-pramlintide) [N-alpha-[(S)-4-Carboxy-4-(19-carboxynonadecanoylamino)butyryl]-Glu-[Glu14,His17,His35]-pramlintide]"
  PARAMETER: "Amylin receptor human EC50"
  OBSERVED RESULT: 0.299
- BINDER: "{C18 diacid-γGlu}-KCNTATCATQRLAEFLHHSSNNFGPILPPTNVGSHTY-NH2 (disulfide 2-7; not fully specified; printed as N-alpha-[(S)-4-Carboxy-4-(17-carboxyheptadecanoylamino)butyryl]-[Glu14,His17,His35]-pramlintide) [N-alpha-[(S)-4-Carboxy-4-(17-carboxyheptadecanoylamino)butyryl]-[Glu14,His17,His35]-pramlintide]"
  PARAMETER: "Amylin receptor human EC50"
  OBSERVED RESULT: 0.056
